FYI, the data here is from ChEMBL document CHEMBL4513216.

- Test system: Plasmodium berghei
- assayExplanation: Screen against P. berghei liver stage (PbLuc), transformed with Luciferase, at 2uM
- Type: functional, HepG2
- protocolConditions: tested at 2 uM
About 2,700 (4%) of roughly 68,000 compounds showed an effect of 50% or more. The list comes from a sample in which strong results are over-represented; it also holds close analogues and randomly drawn compounds.
Would you kindly list INHIBITION for each of these compounds?
One number for each entry, in %.

Take a look at these entries with their results.
compound	INHIBITION / %
Cc1cccc(CN2CCN(c3nc(CO)cs3)CC2)c1	86.36
Cc1ccc(-n2ncc(C(=O)N(C)C3CCN(C)CC3)c2N)cc1C	-11.1
Cc1nnc(N2CCOC(C)(C(=O)N(C)C)C2)c2ccccc12 (centres undefined)	29.68
CCCNC(=O)C(C)n1nc(-c2ccc(C)o2)cc(N)c1=O (centres undefined)	0.86
COc1ccccc1CN1CCC(c2nn(CCN)c3nccnc23)C1 (centres undefined)	-6.04

Hey, quick one: what's INHIBITION for each of these?
1. Cc1n[nH]c(=O)c2c(NC(=O)CN3CCC(O)CC3)oc(C)c12
2. O=C(Nc1ccccc1)C1CN(C(=O)c2cccs2)CC12CCOCC2 (centres undefined)

1. 5.72
2. -36.65
